The entries below are paired with their reported Plant response rating, Foxtail, Giant.
System: giant foxtail
Test: Test C postemergence
Assay type: in vivo, Setaria faberii
Details: 125 g ai/ha, postemergence; visual rating, scale 0 to 100 (0 no effect, 100 complete control)
Simply state the number, no unit and no words.

Here's what some known entries look like.
| SAMPLE_SMILES | TARGET_OR_SYSTEM | VALUE |
| --- | --- | --- |
| N#Cc1cccc(Oc2ncc(Cl)cn2)c1-n1cc(I)cn1 | giant foxtail | 10 |
| N#Cc1cccc(Oc2ncc(Cl)cn2)c1-n1cc(-n2ccc(C(F)(F)F)n2)cn1 | giant foxtail | 20 |
| N#Cc1cn(-c2c(Br)cccc2Oc2ncc(Cl)cn2)nn1 | giant foxtail | 10 |

Shift focus to the following entry.
Q: Any idea what Plant response rating, Foxtail, Giant came out for CCCOc1cnn(-c2c(C#N)cccc2Oc2ncc(Cl)cn2)c1 on giant foxtail?
Result: 25

###

System: large (Lg) crabgrass
Experiment: Test C preemergence
Type: in vivo, Digitaria sanguinalis
Settings: Preemergence, 31 g ai/ha; scale 0 to 100, 0 no effect, 100 complete control
QUANTITY_KIND: Plant response rating, Crabgrass, Large
Provide a numeric answer; units are not to be included.

Answered examples (4):
| SAMPLE_SMILES | Plant response rating, Crabgrass, Large |
| --- | --- |
| N#Cc1cnn(-c2c(CF)cccc2Oc2ncc(F)cn2)c1 | 85 |
| CCOc1cnn(-c2c(C#N)cccc2Oc2ncc(Cl)cn2)c1 | 100 |
| Fc1cnc(Oc2cccc(C(F)F)c2-n2cc(Br)cn2)nc1 | 100 |
| FC(F)(F)c1cnn(-c2c(Cl)cccc2Oc2ncc(Cl)cn2)c1 | 98 |

Q: Please look up its Plant response rating, Crabgrass, Large: FCc1cn(-c2c(F)cccc2Oc2ncc(Cl)cn2)nn1
Result: 90

###

Reported values of Plant response rating, Ragweed for individual entries
Test system: ragweed
Assay: Test A postemergence
Type: in vivo, Ambrosia elatior
Details: 31 g ai/ha, 0 to 100 scale, 0 no effect, 100 complete control
Reply briefly: the number, and no unit.

Study these solved cases before continuing.
| COMPOUND | TARGET_OR_SYSTEM | VALUE |
| --- | --- | --- |
| FCc1cccc(Oc2ncc(Cl)cn2)c1-n1cc(Cl)cn1 [Compound 250] | ragweed | 50 |
| FCc1cccc(Oc2ncc(Cl)cn2)c1-n1cc(C(F)(F)F)cn1 [Compound 119] | ragweed | 30 |
| FC(F)(F)COc1cnn(-c2c(Br)cccc2Oc2ncc(Cl)cn2)c1 [Compound 128] | ragweed | 0 |
| Cc1cc(C)n(-c2ccccc2Oc2ncc(Cl)cn2)n1 [Compound 264] | ragweed | 0 |

Now examine the next entry.
Q: Value lookup for Plant response rating, Ragweed; key = Fc1cnc(Oc2ccccc2-n2cc(OCC(F)(F)F)cn2)nc1 [Compound 241]
Result: 10

###

Tested on: barnyardgrass
Test: Test B flooded paddy test
Type: in vivo, Echinochloa crus-galli
Conditions: Flood, 250 g ai/ha; 0 to 100 scale where 0 is no effect and 100 is complete control
QUANTITY_KIND: Plant response rating, Barnyardgrass
# output: bare number, no unit

For orientation, consider the following solved cases.
| SAMPLE_SMILES | TARGET_OR_SYSTEM | Plant response rating, Barnyardgrass |
| --- | --- | --- |
| FCc1cn(-c2c(F)cccc2Oc2ncc(Cl)cn2)nn1 | barnyardgrass | 20 |
| Fc1cccc(Oc2ncc(Cl)cn2)c1-n1cc(-c2ccsc2)nn1 | barnyardgrass | 0 |
| C[Si](C)(C)c1cn(-c2ccccc2Oc2ncc(Cl)cn2)nn1 | barnyardgrass | 0 |
| N#Cc1cccc(Oc2ncc(Cl)cn2)c1-n1ccnc1 | barnyardgrass | 0 |
| CCOC(=O)c1cnn(-c2c(C#N)cccc2Oc2ncc(Cl)cn2)c1 | barnyardgrass | 0 |

Q: So what Plant response rating, Barnyardgrass did Fc1cccc(Oc2ncc(Cl)cn2)c1-n1cc(OCC(F)(F)F)cn1 get with barnyardgrass?
Result: 35

Q: Next compound up: COc1ccc(Br)c(-n2cc(Br)cn2)c1Oc1ncc(Cl)cn1
Result: 0

Q: Another compound: FC(F)(F)c1cnn(-c2c(Cl)cccc2Oc2ncc(Br)cn2)c1
Result: 0

Q: Then what about the compound Brc1cnn(-c2ccccc2Oc2ncccn2)c1 ?
Result: 15

Q: Let us now turn to O=Cc1cccc(Oc2ncc(Br)cn2)c1-n1cc(I)cn1
Result: 0

Q: Further, for CC#Cc1cnn(-c2ccccc2Oc2ncc(Cl)cn2)c1 ?
Result: 0

Values were extracted from patent US9695155B2.
